For each record, write down the corresponding mass density.
details: 298.15 K; 100 kPa; Liquid; Vibrating tube method
# number only, unit kg/m3 dropped from output

Problem: What mass density value was documented for this molecule, CCO ?
Solution: 785.2

Problem: What mass density value was documented for this molecule, CCCCO ?
Solution: 805.9

Problem: What mass density value was documented for this molecule, CCCO ?
Solution: 799.6

Problem: What mass density value was documented for this molecule, CCCCOC(C)=O [butyl ethanoate] ?
Solution: 876.5

* * *

assay: refractive index (Na D-line) (dimensionless); settings: 298.15 K; 101.33 kPa; Liquid; Standard Abbe refractometry
observationType: refractive index
Give a plain numeric answer without units written out.

Problem: What refractive index value was documented for this compound, CCCCOC(C)=O [butyl ethanoate] ?
Solution: 1.39201

Problem: What refractive index value was documented for this compound, CCCCO ?
Solution: 1.39732

Problem: What refractive index value was documented for this compound, CO ?
Solution: 1.32676

Problem: What refractive index value was documented for this compound, CCCO ?
Solution: 1.38315

Problem: What refractive index value was documented for this compound, CCO ?
Solution: 1.35933
